FYI, the data here is from ChEMBL document CHEMBL1139243.

# METHOD_SUMMARY: Inhibition of Bacillus stearothermophilus alpha-glucosidase
# Set-up: species or system Geobacillus stearothermophilus
ENDPOINT: IC50

* COc1ccc([C@@H]2N[C@@H](CO)[C@H](O)[C@H]2O)cc1O [L-RADICAMINE A] | > 200 µM

Qu. Give recorded IC50. "CCCCN1[C@H](CO)[C@@H](O)[C@H](O)[C@H]1c1ccc(OC)c(O)c1"
Ans. > 200 µM

###

Listed compounds paired with reported pIC50
# METHOD_SUMMARY: Inhibition of yeast alpha-glucosidase
# Set-up: species or system Saccharomyces cerevisiae
Convention used: pIC50 is expressed as -log10 of the molar concentration.

Below: 5 compounds and their reported pIC50.
• COc1cccc([C@H]2N[C@H](CO)[C@@H](O)[C@@H]2O)c1 = 5.62
• COc1ccc([C@@H]2[C@@H](O)[C@H](O)[C@@H](CO)N2C)cc1O = 4.55
• OC[C@H]1N[C@H](c2ccccc2)[C@@H](O)[C@@H]1O = 5.00
• COc1ccc([C@H]2N[C@H](CO)[C@@H](O)[C@@H]2O)cc1O = 5.38
• COc1ccc(OC)c([C@H]2N[C@H](CO)[C@@H](O)[C@@H]2O)c1 = 5.59

Qu. Give recorded pIC50. "COc1ccc([C@H]2N[C@H](CO)[C@@H](O)[C@@H]2O)cc1OC"
Ans. 5.96

Qu. Give recorded pIC50. "COc1ccc([C@@H]2N[C@@H](CO)[C@H](O)[C@H]2O)cc1OC"
Ans. 5.22

Qu. Give recorded pIC50. "COc1ccc([C@H]2N[C@H](CO)[C@@H](O)[C@@H]2O)cc1"
Ans. 6.30

Qu. Give recorded pIC50. "COc1ccc([C@@H]2N[C@@H](CO)[C@H](O)[C@H]2O)cc1"
Ans. 4.68

Qu. Give recorded pIC50. "COc1ccc([C@H]2N[C@H](CO)[C@@H](O)[C@@H]2O)c(OC)c1"
Ans. 5.11

Qu. Give recorded pIC50. "COc1ccc([C@@H]2[C@@H](O)[C@H](O)[C@@H](CO)N2C)cc1"
Ans. 4.42

Qu. Give recorded pIC50. "OC[C@H]1N[C@H](c2ccc(O)cc2)[C@@H](O)[C@@H]1O"
Ans. 4.62

Qu. Give recorded pIC50. "COc1ccc([C@@H]2[C@@H](O)[C@H](O)[C@@H](CO)N2C)cc1OC"
Ans. 4.14
